# TEST_SYSTEM: CDK6 (Homo sapiens, UniProt Q00534)
# Construct: endogenous in cells
# Sequence (Q00534 whole entry): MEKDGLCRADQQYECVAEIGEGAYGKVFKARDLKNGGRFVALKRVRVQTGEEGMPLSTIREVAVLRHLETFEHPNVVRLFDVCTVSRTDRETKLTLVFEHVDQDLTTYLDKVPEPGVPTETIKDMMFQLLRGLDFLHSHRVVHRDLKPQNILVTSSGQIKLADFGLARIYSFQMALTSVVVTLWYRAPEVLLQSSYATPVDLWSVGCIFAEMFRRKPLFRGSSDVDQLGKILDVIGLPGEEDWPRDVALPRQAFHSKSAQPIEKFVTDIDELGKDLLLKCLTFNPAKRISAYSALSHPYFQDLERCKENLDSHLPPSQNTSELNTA
# EXPERIMENT_SUMMARY: CDK6 degradation (DC50, Dmax)
# Assay type: cell-based
# Dmax listing for each entry below

COMPOUND: Cc1nc2c(F)cc(-c3nc(Nc4ccc(CN5CCN(C6CN(c7ccc8c(c7)C(=O)N(C7CCC(=O)NC7=O)C8=O)C6)CC5)cn4)ncc3F)cc2n1C(C)C (centres unmarked)
Dmax: > 60%

COMPOUND: CN(C)C(=O)c1cc2cnc(Nc3ccc(N4CCN(CCCNc5ccc6c(c5)CN(C5CCC(=O)NC5=O)C6=O)CC4)cn3)nc2n1C1CCCC1 (centres unmarked)
Dmax: > 80%

COMPOUND: CC(=O)c1c(C)c2cnc(Nc3ccc(N4CCN(C5CCN(C(=O)Nc6ccc7c(c6)C(=O)N(C6CCC(=O)NC6=O)C7=O)CC5)CC4)cn3)nc2n(C2CCCC2)c1=O (centres unmarked)
Dmax: > 80%

COMPOUND: CC(=O)c1c(C)c2cnc(Nc3ccc(N4CCN(CC5CN(c6ccc(NC7CCC(=O)NC7=O)cc6)C5)CC4)cn3)nc2n(C2CCCC2)c1=O (centres unmarked)
Dmax: > 80%

COMPOUND: Cc1nc2c(F)cc(-c3nc(Nc4ccc(CN5CCN(CCNc6ccc7c(c6)C(=O)N(C6CCC(=O)NC6=O)C7=O)CC5)cn4)ncc3F)cc2n1C(C)C (centres unmarked)
Dmax: > 80%

COMPOUND: CC(=O)c1c(C)c2cnc(Nc3ccc(N4CCN(C(=O)C5CCN(c6ccc7c(c6)C(=O)N(C6CCC(=O)NC6=O)C7=O)CC5)CC4)cn3)nc2n(C2CCCC2)c1=O (centres unmarked)
Dmax: > 80%

COMPOUND: CC(=O)c1c(C)c2cnc(Nc3ccc(N4CCN(C(=O)N5CCN(CCC6CCN(c7ccc8c(c7)C(=O)N(C7CCC(=O)NC7=O)C8=O)CC6)CC5)CC4)cn3)nc2n(C2CCCC2)c1=O (centres unmarked)
Dmax: > 60%

COMPOUND: CC(=O)c1c(C)c2cnc(Nc3ccc(N4CCN(C(=O)N5CCC(CCN6CCC(c7ccc8c(c7)CN(C7CCC(=O)NC7=O)C8=O)CC6)CC5)CC4)cn3)nc2n(C2CCCC2)c1=O (centres unmarked)
Dmax: > 50%

COMPOUND: CC(=O)c1c(C)c2cnc(Nc3ccc(N4CCN(CC5CN(c6cccc7c6C(=O)N(C6CCC(=O)NC6=O)C7=O)C5)CC4)cn3)nc2n(C2CCCC2)c1=O (centres unmarked)
Dmax: > 80%

COMPOUND: CC(=O)c1c(C)c2cnc(Nc3ccc(N4CCN(C(=O)C5CN(c6ccc(C(=O)NC7CCC(=O)NC7=O)cc6)C5)CC4)cn3)nc2n(C2CCCC2)c1=O (centres unmarked)
Dmax: > 60%

COMPOUND: Cc1nc2c(F)cc(-c3nc(Nc4ccc(CN5CCN(C6CCN(c7ccc8c(c7)CN(C7CCC(=O)NC7=O)C8=O)CC6)CC5)cn4)ncc3F)cc2n1C(C)C (centres unmarked)
Dmax: > 60%

* * *

# TEST_SYSTEM: CDK6 (Homo sapiens, UniProt Q00534)
# Construct: endogenous in cells
# EXPERIMENT_SUMMARY: CDK6 degradation (DC50, Dmax)
# Type: cell-based
PROPERTY: DC50

COMPOUND: CC(=O)c1c(C)c2cnc(Nc3ccc(C4CCN(CC5CN(c6ccc(C(=O)NC7CCC(=O)NC7=O)cc6)C5)CC4)cn3)nc2n(C2CCCC2)c1=O (stereo not drawn) [Compound 127]
PROPERTY: DC50
OBS_VALUE: 0.05 to 0.2 µM
//
COMPOUND: CC(=O)c1c(C)c2cnc(Nc3ccc(N4CCN(CCC5CCN(C(=O)Nc6ccc7c(c6)CN(C6CCC(=O)NC6=O)C7=O)CC5)CC4)cn3)nc2n(C2CCCC2)c1=O (stereo not drawn) [Compound 46]
PROPERTY: DC50
OBS_VALUE: 0.05 to 0.2 µM
//
COMPOUND: Cc1nc2c(F)cc(-c3nc(Nc4ccc(CC5CCN(CC6CN(c7ccc(NC8CCC(=O)NC8=O)cc7)C6)CC5)cn4)ncc3F)cc2n1C(C)C (stereo not drawn) [Compound 142]
PROPERTY: DC50
OBS_VALUE: 0.05 to 0.2 µM
//
COMPOUND: Cc1nc2c(F)cc(-c3nc(Nc4ccc(CN5CCN(CCCNc6ccc7c(c6)CN(C6CCC(=O)NC6=O)C7=O)CC5)cn4)ncc3F)cc2n1C(C)C (stereo not drawn) [Compound 74]
PROPERTY: DC50
OBS_VALUE: < 0.05 µM
//
COMPOUND: CC(=O)c1c(C)c2cnc(Nc3ccc(N4CCN(CCCCNc5ccc6c(c5)C(=O)N(C5CCC(=O)NC5=O)C6=O)CC4)cn3)nc2n(C2CCCC2)c1=O (stereo not drawn) [Compound 53]
PROPERTY: DC50
OBS_VALUE: 0.05 to 0.2 µM
//
COMPOUND: Cc1nc2c(F)cc(-c3nc(Nc4ccc(CC5CCN(CC6CN(c7ccc(C(=O)NC8CCC(=O)NC8=O)cc7)C6)CC5)cn4)ncc3F)cc2n1C(C)C (stereo not drawn) [Compound 141]
PROPERTY: DC50
OBS_VALUE: 0.05 to 0.2 µM
//
COMPOUND: Cc1nc2c(F)cc(-c3nc(Nc4ccc(CC5CCN(C(=O)C6CN(c7ccc(NC8CCC(=O)NC8=O)cc7)C6)CC5)cn4)ncc3F)cc2n1C(C)C (stereo not drawn) [Compound 146]
PROPERTY: DC50
OBS_VALUE: 0.05 to 0.2 µM
//
COMPOUND: CC(=O)c1c(C)c2cnc(Nc3ccc(N4CCN(CC5CCN(c6ccc7c(c6)C(=O)N(C6CCC(=O)NC6=O)C7=O)CC5)CC4)cn3)nc2n(C2CCCC2)c1=O (stereo not drawn) [Compound 65]
PROPERTY: DC50
OBS_VALUE: < 0.05 µM
//
COMPOUND: CC(=O)c1c(C)c2cnc(Nc3ccc(N4CCN(CCCNc5ccc6c(c5)CN(C5CCC(=O)NC5=O)C6=O)CC4)cn3)nc2n(C2CCCC2)c1=O (stereo not drawn) [Compound 50]
PROPERTY: DC50
OBS_VALUE: < 0.05 µM
//
COMPOUND: CC(=O)c1c(C)c2cnc(Nc3ccc(N4CCN(C(=O)N5CCC(CCN6CCC(c7ccc8c(c7)CN(C7CCC(=O)NC7=O)C8=O)CC6)CC5)CC4)cn3)nc2n(C2CCCC2)c1=O (stereo not drawn) [Compound 30]
PROPERTY: DC50
OBS_VALUE: > 0.2 µM
//
COMPOUND: CC(=O)c1c(C)c2cnc(Nc3ccc(N4CCN(CCCNc5cc6c(cc5F)C(=O)N(C5CCC(=O)NC5=O)C6)CC4)cn3)nc2n(C2CCCC2)c1=O (stereo not drawn) [Compound 52]
PROPERTY: DC50
OBS_VALUE: 0.05 to 0.2 µM
//
COMPOUND: CC(=O)c1c(C)c2cnc(Nc3ccc(N4CCN(C(=O)N5CCN(C6CCN(c7ccc8c(c7)CN(C7CCC(=O)NC7=O)C8=O)CC6)CC5)CC4)cn3)nc2n(C2CCCC2)c1=O (stereo not drawn) [Compound 6]
PROPERTY: DC50
OBS_VALUE: > 0.2 µM
//
COMPOUND: CC(=O)c1c(C)c2cnc(Nc3ccc(N4CCN(CC5CCN(C(=O)N6CCN(c7ccc8c(c7)CN(C7CCC(=O)NC7=O)C8=O)CC6)CC5)CC4)cn3)nc2n(C2CCCC2)c1=O (stereo not drawn) [Compound 32]
PROPERTY: DC50
OBS_VALUE: 0.05 to 0.2 µM
//
COMPOUND: Cc1nc2c(F)cc(-c3nc(Nc4ccc(CN5CCN(C(=O)C6CN(c7ccc8c(c7)C(=O)N(C7CCC(=O)NC7=O)C8=O)C6)CC5)cn4)ncc3F)cc2n1C(C)C (stereo not drawn) [Compound 135]
PROPERTY: DC50
OBS_VALUE: 0.05 to 0.2 µM
//
COMPOUND: CC(=O)c1c(C)c2cnc(Nc3ccc(N4CCN(C(=O)N5CCN(CCN6CCC(c7ccc8c(c7)C(=O)N(C7CCC(=O)NC7=O)C8=O)CC6)CC5)CC4)cn3)nc2n(C2CCCC2)c1=O (stereo not drawn) [Compound 27]
PROPERTY: DC50
OBS_VALUE: > 0.2 µM
//
COMPOUND: CC(=O)c1c(C)c2cnc(Nc3ccc(N4CCN(C(=O)N5CCN(CCC6CCN(c7ccc8c(c7)CN(C7CCC(=O)NC7=O)C8=O)CC6)CC5)CC4)cn3)nc2n(C2CCCC2)c1=O (stereo not drawn) [Compound 24]
PROPERTY: DC50
OBS_VALUE: > 0.2 µM
//
COMPOUND: Cc1nc2c(F)cc(-c3nc(Nc4ccc(CN5CCN(CC6CN(c7ccc(C(=O)NC8CCC(=O)NC8=O)cc7)C6)CC5)cn4)ncc3F)cc2n1C(C)C (stereo not drawn) [Compound 133]
PROPERTY: DC50
OBS_VALUE: < 0.05 µM
//
COMPOUND: CC(=O)c1c(C)c2cnc(Nc3ccc(N4CCN(CCC5CCN(c6ccc7c(c6)CN(C6CCC(=O)NC6=O)C7=O)CC5)CC4)cn3)nc2n(C2CCCC2)c1=O (stereo not drawn) [Compound 70]
PROPERTY: DC50
OBS_VALUE: 0.05 to 0.2 µM
//
COMPOUND: CC(=O)c1c(C)c2cnc(Nc3ccc(N4CCN(C5CCN(c6ccc7c(c6)CN(C6CCC(=O)NC6=O)C7=O)CC5)CC4)cn3)nc2n(C2CCCC2)c1=O (stereo not drawn) [Compound 64]
PROPERTY: DC50
OBS_VALUE: 0.05 to 0.2 µM
//
COMPOUND: CC(=O)c1c(C)c2cnc(Nc3ccc(N4CCN(CC5CN(c6ccc(C(=O)NC7CCC(=O)NC7=O)cc6)C5)CC4)cn3)nc2n(C2CCCC2)c1=O (stereo not drawn) [Compound 119]
PROPERTY: DC50
OBS_VALUE: 0.05 to 0.2 µM
//
COMPOUND: CC(=O)c1c(C)c2cnc(Nc3ccc(N4CCN(C5CCN(C(=O)N6CCN(c7ccc8c(c7)C(=O)N(C7CCC(=O)NC7=O)C8=O)CC6)CC5)CC4)cn3)nc2n(C2CCCC2)c1=O (stereo not drawn) [Compound 35]
PROPERTY: DC50
OBS_VALUE: > 0.2 µM
